assayed-target: HLA-B*0702 (Homo sapiens, UniProt P01889)
Construct: expressed in transfected cells; host or cells: human T2-B7 cells (T2 transfected with HLA-B*0702)
assay-notes: Measurement of peptide relative affinity to HLA-B*0702 (surface expression on T2-B7 cells)
Assay type: cell-based
stated-conditions: relative to reference peptide R10V
readout-name: binding to / affinity for HLA-B*0702 (in words)

{"columns": ["biopolymer-sequence", "result"],
 "data": [
  ["APRRLVQLL [TERT444A1, optimized TERT444, alanine at position 1]", "high HLA-B*0702 affinity"],
  ["APRTKAEML [MAGE-A1_121 A1R3, optimized MAGE-A1_121, alanine at position 1 and arginine at position 3]", "high HLA-B*0702 affinity"],
  ["DPRRLVQLL [TERT444, TERT derived native cryptic peptide]", "low affinity"],
  ["APLSLGLET [Hsp70_397, Hsp70 derived native cryptic peptide]", "low affinity"],
  ["YPVTNAVITV [Hsp70_137, Hsp70 derived native cryptic peptide]", "low affinity"],
  ["APRSLGLEL [Hsp70_397 R3L9, optimized Hsp70_397, arginine at position 3 and leucine at C-terminal position]", "high HLA-B*0702 affinity"],
  ["EPITKAEIL [MAGE-A4_121, MAGE-A derived native cryptic peptide]", "low affinity"],
  ["EPVTKAEML [MAGE-A1_121, MAGE-A derived native cryptic peptide]", "low affinity"],
  ["YPEEISSMVL [Hsp70_115, Hsp70 derived native cryptic peptide]", "low affinity"],
  ["EPFTKAEML [MAGE-A2_121, MAGE-A derived native cryptic peptide]", "low affinity"]
]}
